- experiment: BSK_SAg_Proliferation: Cell Proliferation Assessment in the BioMAP Diversity Plus: SAg Assay (AID 2283095);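 further: relative cell number as total protein by SRB absorbance in sub-confluent culture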
- statedConditions: primary human HUVEC with PBMC
The source made the active and inactive calls. How the source made its calls: active means hit-call score of the fitted dose curve at least 0.9, where 1 is the maximum; inactive means score below 0.9.
Result category, one only: yes (1) for active, no (0) for inactive

FC(F)(F)C(F)(F)C(F)(F)C(F)(F)C(F)(F)C(F)(F)CC1CO1 (stereo unspecified); no (0)
CCN(CC)c1ccc2c(C)cc(=O)oc2c1; no (0)

Lookup: Short answer needed: outcome of this test for "FC(F)(F)C(F)(F)CNCC(F)(F)C(F)(F)F" ?
Found: no (0)

Lookup: # outcome recorded in this test, key = "OCC(F)(F)C(F)(F)C(F)(F)F"
Found: no (0)

Lookup: For this compound, state the assay outcome: "CS(C)(=O)=O"
Found: no (0)

Lookup: For "O=C(O)C(F)(F)C(F)(F)C(F)F" , what call appears in the results of this test?
Found: no (0)

Lookup: Which outcome did this test record for the compound "FC(F)(F)C(F)(F)C(F)(F)C(F)(F)C(F)(F)C(F)(F)C(F)(F)C(F)(F)F" ?
Found: no (0)
